Hi there, I'd appreciate the recorded apparent KD of MS2 coat protein for every entry that follows.
Test system: MS2 coat protein
Assay comment: apparent KD of MS2 coat protein; designed switch direction (-1 OFF switch, 1 ON switch): -1; higher = weaker reporter binding
Condition details: input ligand: none
A number alone suffices; assume nM.

-- ask Requested read-out apparent KD of MS2 coat protein, target or system MS2 coat protein, entry CUGAACCCGGUAGGAUAUAUUGUGGGCGGGCGUGGAACGACAUGAGGAUCACCCAUGUAAUUGAGGUAGAAGGGCCGAGAGAUU [Excl-NG2-LRO15] (Eterna round: R96, puzzle: Exclusion NG 2)
-- reply 46.4

-- ask Requested read-out apparent KD of MS2 coat protein, target or system MS2 coat protein, entry AUCGUGCAGCUUUGCUGUACGAGUACAUGAGGAUCACCCAUGUAGGAUAUGGUACGCAAAGCGUGCUAGAAGGAUAUGAGAAAU [Mat - Exclusion NG 3 - Mod of JL - D99] (Eterna round: R96, puzzle: Exclusion NG 3)
-- reply 36.3

-- ask Requested read-out apparent KD of MS2 coat protein, target or system MS2 coat protein, entry ACUUGUUGUCCUUGAUAUUACAUGAGGAUCACCCAUGUUAUUGUGAUUAUGAUGUGUAAGUUUGUUGCUCGUUUUAU [JR_STOV1_Sub066] (Eterna round: R97, puzzle: Sensor, turn-off variant 1)
-- reply 84

-- ask Requested read-out apparent KD of MS2 coat protein, target or system MS2 coat protein, entry UGAUGGAGGCAGGAUAUUUUGAUGGAUACGAUAAAAGAAGGGCUGACAUGAGGAUCACCCAUGUGGAUAGCUCA [Eternabot (L1) Solution 39] (Eterna round: R97, puzzle: Exclusion 6)
-- reply 14.4

---

System: MS2 coat protein
Assay comment: apparent KD of MS2 coat protein; designed switch direction (-1 OFF switch, 1 ON switch): -1; higher = weaker reporter binding
Condition details: Eterna round: R95; input ligand: FMN 200 uM
Hi there, I'd appreciate the recorded apparent KD of MS2 coat protein for every entry that follows.
A number alone suffices; assume nM.

-- ask Data request, read-out apparent KD of MS2 coat protein, for AAGAAACAUGAGGAUCACCCAUGUGAGGAUAUGAGAAAGAAAAGAAAAGAAAGAAGAUUCAGAAGGCACAAAGG [salish99-ex1_r3_035] (puzzle: Exclusion 1)
-- reply 91.9

-- ask Data request, read-out apparent KD of MS2 coat protein, for AGAAGUAGCAACCGAUCCUACAUGAGGAUCACCCAUGUAGCAAGACGUGCACGCGAAGCUCGUCAGACUACCAGAUG [salish99_TOv1_r3_022] (puzzle: Sensor v3, turn-off variant 1)
-- reply 216

-- ask Data request, read-out apparent KD of MS2 coat protein, for GUUAAACAUGAGGAUCACCCAUGUAAGGAUAUGCUGAGGUCGCGCUGACGUGAAUGAAGCAGAAGGUACAAAUG [Mat - Mod of JL D63] (puzzle: Exclusion 1)
-- reply 79.5

-- ask Data request, read-out apparent KD of MS2 coat protein, for CUGUAACGAGCGUGAGCCGACAUGAGGAUCACCCAUGUGCUCGUCUUAUAACGUACUGUCACGUUAGUGAUAGUGCG [Sensor v3, turn-off variant 1 (MOD of Eli's v1-13 v.2)] (puzzle: Sensor v3, turn-off variant 1)
-- reply 45.9

-- ask Data request, read-out apparent KD of MS2 coat protein, for AUUAAGCAGCAGGAUAUAAGUAUCUGAUGGUGGUUAGAAGGGCUGACAUGAGGAUCACCCAUGUGCUCUUCGUG [Tieruseres] (puzzle: Exclusion 6)
-- reply 16.1
